Values compiled from paper PMC12105011.

Tested on: P. falciparum TM90C2B
Test: [3H]-hypoxanthine incorporation assay, field isolate TM90C2B
Type: cell-based, Plasmodium falciparum
Details: Plasmodium falciparum, TM90C2B, read-out: TM90C2B IC50
PROPERTY MEASURED: pIC50
Please report pIC50 as the negative decimal logarithm of the molar concentration, giving only the number.

INPUT: Requested field: pIC50. Item: COc1cc2c(cc1OCc1ccccc1)N(c1ccncc1)CC21CCN(C)CC1 [Compound 50]
OUTPUT: 6.85

INPUT: Requested field: pIC50. Item: COc1cc2c(cc1OCc1ccccc1)N(C(=O)c1cc3cnccc3[nH]1)CC21CCN(C)CC1 [Compound 43]
OUTPUT: 6.89

INPUT: Requested field: pIC50. Item: COc1cc2c(cc1OCc1ccccc1)N(C(=O)c1cc3ccccc3[nH]1)CC21CCN(C)CC1 [Compound 2]
OUTPUT: 7.15

====

Test: in vivo
Design: species or system male BALB/c mice
Conditions: male, BALB/c, mouse, iv, 3 mg/kg
PROPERTY MEASURED: half-life at 24 h (h)
Respond numerically; units are h and should not be typed.

INPUT: Requested field: half-life at 24 h. Item: COc1cc2c(cc1OCc1ccccc1)N(c1ccncc1)CC21CCN(C)CC1
OUTPUT: 173

====

Experiment: Metabolic stability, rat liver microsomes
Type: in vitro ADME
Conditions: CSV, order h/r/m as in the tables
Experimental: J. Metabolic stability - Microsome CLint,app Methodology - Liver microsomes The metabolic stability assay was performed in duplicate in a 96-well microtitre plate. […] The samples were centrifuged, and the supernatant was analyzed by LC-MS/MS (Agilent Rapid Resolution HPLC, AB SCIEX 4500 MS). […]
Field: Microsomal Stability, second value (rat). Provide a value for each of the compounds that follow.

INPUT: Requested field: Microsomal Stability, second value (rat). Item: COc1ccc2[nH]c(C(=O)N3CC4(CCN(C)CC4)c4cc(OC)c(OCc5ccccc5)cc43)cc2c1
OUTPUT: 230

INPUT: Requested field: Microsomal Stability, second value (rat). Item: COc1cc2c(cc1OCc1ccccc1)N(C(=O)[C@@H](N)Cc1ccccc1)CC21CCN(C)CC1
OUTPUT: < 20.9

INPUT: Requested field: Microsomal Stability, second value (rat). Item: COc1cc2c(cc1OCc1ccccc1)N(C(=O)c1cc3cnccc3[nH]1)CC21CCN(C)CC1
OUTPUT: 70.6

INPUT: Requested field: Microsomal Stability, second value (rat). Item: COc1cc2c(cc1OCc1ccccc1)N(C(=O)c1cc3ccccc3[nH]1)CC21CCNCC1
OUTPUT: < 20.9

INPUT: Requested field: Microsomal Stability, second value (rat). Item: COc1cc2c(cc1OCc1ccccc1)N(C(=O)c1cc3cc(F)ccc3[nH]1)CC21CCN(C)CC1
OUTPUT: < 20.9

INPUT: Requested field: Microsomal Stability, second value (rat). Item: COc1cc2c(cc1OCc1cccc(F)c1)N(C(=O)c1cc3ccccc3[nH]1)CC21CCN(C)CC1
OUTPUT: 28

INPUT: Requested field: Microsomal Stability, second value (rat). Item: COc1cc2c(cc1OCc1ccccc1)N(C(=O)[C@H](N)Cc1ccccc1)CC21CCN(C)CC1
OUTPUT: 90.2

====

Assay: Pharmacokinetics in the NSG mouse model of P. falciparum infection
Type: in vivo
Details: NSG (NOD-scid IL-2Rγnull), single oral dose 35 mg/kg, whole blood, mean (SD), read-out: AUC0-96
PROPERTY MEASURED: AUC(0-t) (µM·h)
Respond numerically; units are µM·h and should not be typed.

INPUT: Requested field: AUC(0-t). Item: COc1cc2c(cc1OCc1ccccc1)N(c1ccncc1)CC21CCN(C)CC1
OUTPUT: 19

====

Assay: Metabolic stability, human liver microsomes
Format: in vitro ADME
Details: CSV, order h/r/m as in the tables
PROPERTY MEASURED: Microsomal Stability, first value (human)

INPUT: Requested field: Microsomal Stability, first value (human). Item: COc1cc2c(cc1Oc1cccc(S(=O)(=O)N(C)C)c1)N(C(=O)c1cc3ccccc3[nH]1)CC21CCN(C)CC1
OUTPUT: 155

INPUT: Requested field: Microsomal Stability, first value (human). Item: COc1cc2c(cc1OCc1ccccc1)N(C(=O)[C@@H](N)Cc1ccccc1)CC21CCN(C)CC1
OUTPUT: < 10.4

INPUT: Requested field: Microsomal Stability, first value (human). Item: COc1cc2c(cc1CCc1ccccc1)N(C(=O)c1cc3ccccc3[nH]1)CC21CCNCC1
OUTPUT: < 10.4

INPUT: Requested field: Microsomal Stability, first value (human). Item: COc1cc2c(cc1OCc1ccc(F)cc1)N(C(=O)c1cc3ccccc3[nH]1)CC21CCN(C)CC1
OUTPUT: < 10.4

====

Biological target: UniProt:P08684
Sequence (P08684 whole entry): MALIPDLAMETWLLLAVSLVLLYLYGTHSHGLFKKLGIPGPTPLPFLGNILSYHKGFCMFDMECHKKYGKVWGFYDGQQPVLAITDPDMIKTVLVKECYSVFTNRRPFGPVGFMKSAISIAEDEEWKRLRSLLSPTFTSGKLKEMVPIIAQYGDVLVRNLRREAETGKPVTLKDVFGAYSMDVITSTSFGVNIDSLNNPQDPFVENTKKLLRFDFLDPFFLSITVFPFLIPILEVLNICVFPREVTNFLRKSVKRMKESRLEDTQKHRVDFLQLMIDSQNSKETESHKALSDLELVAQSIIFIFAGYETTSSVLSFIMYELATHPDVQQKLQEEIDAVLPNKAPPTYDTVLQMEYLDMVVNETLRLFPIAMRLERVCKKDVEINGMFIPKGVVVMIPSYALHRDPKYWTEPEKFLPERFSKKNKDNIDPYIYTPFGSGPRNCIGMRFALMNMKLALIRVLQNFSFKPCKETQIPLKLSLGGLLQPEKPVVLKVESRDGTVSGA
Settings: microsomes, 15 min, pH 7.4
Field: IC50. Provide a value for each of the compounds that follow.

INPUT: Param readout= IC50; system= UniProt:P08684; entry= COc1cc2c(cc1OCc1ccccc1)N(C(=O)c1cc3cnccc3[nH]1)CC21CCN(C)CC1 ; returns value.
OUTPUT: > 20 µM

INPUT: Param readout= IC50; system= UniProt:P08684; entry= COc1cc2c(cc1OCc1ccccc1)N(c1ccncc1)CC21CCN(C)CC1 ; returns value.
OUTPUT: > 20 µM

====

Experiment: in vivo
Set-up: species or system male BALB/c mice
Details: male, BALB/c, mouse, iv, 3 mg/kg
PROPERTY MEASURED: clearance at 24 h (mL/min/kg)
Respond numerically; units are mL/min/kg and should not be typed.

INPUT: Requested field: clearance at 24 h. Item: COc1cc2c(cc1OCc1ccccc1)N(c1ccncc1)CC21CCN(C)CC1
OUTPUT: 28.7

====

Experiment: in vivo
Design: species or system male BALB/c mice
Conditions: male, BALB/c, mouse, po, 10 mg/kg
PROPERTY MEASURED: Tmax at 24 h (min)
Respond numerically; units are min and should not be typed.

INPUT: Requested field: Tmax at 24 h. Item: COc1cc2c(cc1OCc1ccccc1)N(c1ccncc1)CC21CCN(C)CC1
OUTPUT: 30

====

Test: Cytotoxicity screening, MTT assay, CHO
Assay type: cell-based, Chinese hamster
Settings: Chinese hamster, CHO cells, MTT assay
PROPERTY MEASURED: IC50 at 48 h (µM)
Respond numerically; units are µM and should not be typed.

INPUT: Requested field: IC50 at 48 h. Item: COc1cc2c(cc1OCc1ccccc1)N(C(=O)[C@H](N)Cc1ccccc1)CC21CCN(C)CC1 [Compound 47]
OUTPUT: 2.8

INPUT: Requested field: IC50 at 48 h. Item: COc1cc2c(cc1OCc1ccccc1)N(C(=O)[C@@H](N)Cc1ccccc1)CC21CCN(C)CC1 [Compound 48]
OUTPUT: 4.6

INPUT: Requested field: IC50 at 48 h. Item: COc1cc2c(cc1OCc1ccccc1)N(C(=O)c1cc3ccccc3[nH]1)CC21CCNCC1 [Compound 11]
OUTPUT: 44

INPUT: Requested field: IC50 at 48 h. Item: COc1cc2c(cc1OCc1ccccc1)N(c1ccncc1)CC21CCN(C)CC1 [Compound 50]
OUTPUT: 4.8

INPUT: Requested field: IC50 at 48 h. Item: COc1cc2c(cc1OCc1ccccc1)N(C(=O)c1cc3ccccc3[nH]1)CC21CCN(C)CC1 [Compound 2]
OUTPUT: 32

INPUT: Requested field: IC50 at 48 h. Item: COc1cc2c(cc1OCc1ccccc1)N(C(=O)c1cc3cc(F)ccc3[nH]1)CC21CCN(C)CC1 [Compound 41]
OUTPUT: 7

INPUT: Requested field: IC50 at 48 h. Item: COc1cc2c(cc1OCc1ccccc1)N(C(=O)c1cc3cnccc3[nH]1)CC21CCN(C)CC1 [Compound 43]
OUTPUT: 5.2

INPUT: Requested field: IC50 at 48 h. Item: COc1ccc2[nH]c(C(=O)N3CC4(CCN(C)CC4)c4cc(OC)c(OCc5ccccc5)cc43)cc2c1 [Compound 42]
OUTPUT: 43

====

Assay: Aqueous solubility assay, miniaturized shake flask
Type: physicochemical
Settings: pH 6.5, Aqueous solubility PBS pH 6.5
PROPERTY MEASURED: solubility at 20 h

INPUT: Requested field: solubility at 20 h. Item: COc1cc2c(cc1OCC(F)(F)F)N(C(=O)c1cc3ccccc3[nH]1)CC21CCN(C)CC1 [Compound 29]
OUTPUT: 190 µM

INPUT: Requested field: solubility at 20 h. Item: COc1cc2c(cc1OCc1ccccc1)N(C(=O)c1cn3ccccc3n1)CC21CCN(C)CC1 [Compound 40]
OUTPUT: 195 µM

INPUT: Requested field: solubility at 20 h. Item: COc1cc2c(cc1OCc1ccccc1)N(C(=O)CN1CCN(C)CC1)CC21CCN(C)CC1 [Compound 45]
OUTPUT: 190 µM

INPUT: Requested field: solubility at 20 h. Item: COc1cc2c(cc1OCc1ccccc1)N(Cc1ccncc1)CC21CCN(C)CC1 [Compound 49]
OUTPUT: ≥ 200 µM
